Test system: Candida tropicalis
Experiment: Antifungal activity against Candida tropicalis GIM 2.183 assessed as reduction in fungal growth incubated for 24 hrs by serial dilution method
Type: functional
Details: GIM 2.183, 24 h
Classify: Satisfied when MIC is strictly less than 0.1 µg/mL; Not satisfied when MIC is not.

Answered examples (3):
O=C(NC(Cn1ccnc1)C(=O)c1ccccc1)c1ccc(-c2ccccc2)cc1 (centres undefined)
Satisfied
O=C(NC(Cn1ccnc1)C(=O)c1ccccc1F)c1ccc(-c2ccccc2)c(F)c1 (centres undefined)
Not satisfied
O=C(NC(Cn1ccnc1)C(=O)c1ccc(F)cc1)c1ccc(-c2ccccc2)cc1F (centres undefined)
Not satisfied

Below 0.1 µg/mL on MIC? Entry Cc1ccc(-c2ccc(C(=O)NC(Cn3ccnc3)C(=O)c3ccccc3)cc2)cc1 (centres undefined)
Not satisfied

Below 0.1 µg/mL on MIC? Entry O=C(NC(Cn1ccnc1)C(=O)c1ccc(Cl)cc1)c1ccc(-c2ccccc2)cc1F (centres undefined)
Satisfied

----------
Tested on: Candida tropicalis
Experiment: Antifungal activity against Candida tropicalis GIM 2.183 assessed as reduction in fungal growth incubated for 24 hrs by serial dilution method
Format: functional
Conditions: GIM 2.183, 24 h
Entries annotated with measured MIC
# output: bare number, implied unit µg/mL

O=C(NC(Cn1ccnc1)C(=O)c1cccc(F)c1)c1ccc(-c2ccccc2)cc1F (centres undefined)
0.5
Cc1ccc(C(=O)C(Cn2ccnc2)NC(=O)c2ccc(-c3ccccc3)cc2)cc1 (centres undefined)
0.03

Consider the record given below.
Suppose we examine the molecule O=C(NC(Cn1ccnc1)C(=O)c1ccc(F)cc1)c1ccc(-c2ccccc2)cc1 (centres undefined) ; what MIC value has been reported?
0.25
